Quick record of Ki values for ADPRT (Bos taurus).
Numbers only here, please. The scale is µM.

compound=Nc1ccc2oc(=O)ccc2c1I endpoint_name=Ki numeric_value=2

// switching to the query compound
(Q) Bench note: what Ki did Nc1ccc2oc(=O)ccc2c1 [6-ABP, 6-amino-1,2-benzopyrone, reference compound] show?
(A) 47

* * *

Test: Solubility
Assay type: physicochemical
Conditions: organic solvent or mixture; 25° C., ethanol; read-out: solubility in ethanol (saturated)
endpoint name: solubility
Field: value (include unit after the number)

(Q) Bench note: what solubility did Nc1ccc2oc(=O)ccc2c1I [5-I-6-ABP, 5-iodo-6-amino-1,2-benzopyrone] show?
(A) 4.7 mM

The measurements presented in this section are drawn from patent US5783599A.
